Experiment: Ex vivo biodistribution in PC-3 tumor-bearing mice
Settings: male, NRG, mouse, seminal, iv, total radioactivity, Biodistribution Seminal Mean, 1 h post-injection, mice bearing PC-3 tumor xenografts, n = 4
Numbered stars: 1 amine (or outer) side, 2 acyl side, 3 side chain; on linkers, the order of the positions; unused ones are H or OH. Square brackets hold non-standard residues; d marks the D form. Peptide text beside a SMILES is read from it. * marks the point of attachment. DOTA = O=C(O)CN1CCN(CC(=O)O)CCN(CC(=O)*)CCN(CC(=O)O)CC1; NMeH = CN[C@@H](Cc1c[nH]cn1)C(=O)O; X1 = O=C(CN1CCC(N[*:1])CC1)[*:2]; Tle = CC(C)(C)[C@H](N)C(=O)O; Thz = O=C(O)[C@@H]1CSCN1
Endpoint Label: tissue uptake at 1 h (%ID/g)
Numbers only, in %ID/g.

Provide tissue uptake at 1 h values for the following items, in order.
1. CC(C)C[C@H](NC(=O)[C@H](Cc1cnc[nH]1)N(C)C(=O)CNC(=O)[C@@H](NC(=O)[C@H](C)NC(=O)[C@H](Cc1c[nH]c2ccccc12)NC(=O)[C@H](Cc1c[nH]cn1)NC(=O)[C@@H](Cc1ccccc1)NC(=O)CN1CCC(NC(=O)CN2CCN(CC(=O)O)CCN(CC(=O)O)CCN(CC(=O)O)CC2)CC1)C(C)(C)C)C(=O)N1CSC[C@H]1C(N)=O [^68Ga-LW01142, metal not drawn] ({DOTA}-[X1][dF]HWA[Tle]G[NMeH]L[Thz]-NH2)
2. CC(C)C[C@H](NC(=O)[C@H](Cc1c[nH]cn1)NC(=O)CNC(=O)[C@@H](NC(=O)[C@H](C)NC(=O)[C@H](Cc1c[nH]c2ccccc12)NC(=O)[C@H](CCC(N)=O)NC(=O)[C@@H](Cc1ccc2ccccc2c1)NC(=O)CN1CCC(NC(=O)CN2CCN(CC(=O)O)CCN(CC(=O)O)CCN(CC(=O)O)CC2)CC1)C(C)C)C(=O)N1CSC[C@H]1C(N)=O [^68Ga-LW01029, metal not drawn]

1: 0.33; 2: 0.13

Entry CC(C)C[C@H](NC(=O)[C@H](Cc1cnc[nH]1)N(C)C(=O)CNC(=O)[C@@H](NC(=O)[C@H](C)NC(=O)[C@H](Cc1c[nH]c2ccccc12)NC(=O)[C@H](CCC(N)=O)NC(=O)[C@@H](Cc1ccccc1)NC(=O)CN1CCC(NC(=O)CN2CCN(CC(=O)O)CCN(CC(=O)O)CCN(CC(=O)O)CC2)CC1)C(C)(C)C)C(=O)N1CSC[C@H]1C(N)=O [^68Ga-LW01110, metal not drawn] : reported tissue uptake at 1 h = ? 0.1
